Tested on: HL-60
test_name: Cytotoxicity against human HL60 cells by MTT assay
Format: cell-based
Listed below: IC50 values for each entry.
Value expressed in µM; do not type the unit.

Some solved cases for reference:
CC(C)CCC[C@@H](C)[C@H]1CC[C@@]2(C)[C@@H](O)[C@@H](N)CC[C@]12C : 11
CC(C)CCC[C@@H](C)[C@H]1CC[C@@]2(C)[C@@H](O)[C@@H](N(Cc3ccccc3)Cc3ccccc3)CC[C@]12C : 27
C=CCCCN(C)[C@H]1CC[C@]2(C)[C@@H]([C@H](C)CCCC(C)C)CC[C@@]2(C)[C@H]1O : 7

Attention now turns to another entry.
Which IC50 is reported for this compound? `C=CCCCN[C@H]1CC[C@]2(C)[C@@H]([C@H](C)CCCC(C)C)CC[C@@]2(C)[C@H]1O`
15

* * *

target_system: 3-beta-hydroxysteroid-Delta(8),Delta(7)-isomerase (Homo sapiens, UniProt Q15125)
Sequence (Q15125 whole entry): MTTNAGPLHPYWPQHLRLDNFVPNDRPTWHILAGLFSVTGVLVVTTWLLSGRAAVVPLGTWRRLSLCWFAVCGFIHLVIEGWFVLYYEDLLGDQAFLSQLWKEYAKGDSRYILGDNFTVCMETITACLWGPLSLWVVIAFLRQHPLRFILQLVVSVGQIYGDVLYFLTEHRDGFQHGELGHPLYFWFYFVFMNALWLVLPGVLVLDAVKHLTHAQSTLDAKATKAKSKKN
test_name: Inhibition of delta8,7-sterol isomerase-mediated cholesterol biosynthesis in human HL60 cells assessed as increase in zymostenol accumulation
readout_kind: pIC50
pIC50 (log units): -log10 of the concentration in mol/L.

C=CCCCN[C@H]1CC[C@]2(C)[C@@H]([C@H](C)CCCC(C)C)CC[C@@]2(C)[C@H]1O : 7.24

Which pIC50 is reported for this molecule? `CC(C)CCC[C@@H](C)[C@H]1CC[C@@]2(C)[C@@H](O)[C@@H](N)CC[C@]12C`
6.24

Which pIC50 is reported for this molecule? `C=CCCCN(C)[C@H]1CC[C@]2(C)[C@@H]([C@H](C)CCCC(C)C)CC[C@@]2(C)[C@H]1O`
7.74

* * *

System: HL-60
test_name: Cytotoxicity against human HL60 cells by MTT assay
Assay type: cell-based
readout_kind: pIC50
pIC50 (log units): -log10 of the concentration in mol/L.

C=CCCCN(Cc1ccccc1)[C@H]1CC[C@]2(C)[C@@H]([C@H](C)CCCC(C)C)CC[C@@]2(C)[C@H]1O : 4.77
CC(C)CCC[C@@H](C)[C@H]1CC[C@@]2(C)[C@@H](O)[C@@H](NCc3ccccc3)CC[C@]12C : 5.10
CC(C)CCC[C@@H](C)[C@H]1CC[C@@]2(C)[C@@H](O)[C@@H](N(C)Cc3ccccc3)CC[C@]12C : 5.15

Attention now turns to another entry.
Recall the recorded pIC50 for `CC(C)CCC[C@@H](C)[C@H]1CC[C@@]2(C)[C@@H](O)[C@@H](N(C)C)CC[C@]12C` with HL-60 and state it.
4.77

* * *

target_system: 3-beta-hydroxysteroid-Delta(8),Delta(7)-isomerase (Homo sapiens)
test_name: Inhibition of delta8,7-sterol isomerase-mediated cholesterol biosynthesis in human HL60 cells assessed as increase in zymostenol accumulation
readout_kind: pIC50
pIC50 (log units): -log10 of the concentration in mol/L.

Some solved cases for reference:
CC(C)CCC[C@@H](C)[C@H]1CC[C@@]2(C)[C@@H](O)[C@@H](N(C)C)CC[C@]12C : 6.24
CC(C)CCC[C@@H](C)[C@H]1CC[C@@]2(C)[C@@H](O)[C@@H](NCc3ccccc3)CC[C@]12C : 7.82
C=CCCCN(Cc1ccccc1)[C@H]1CC[C@]2(C)[C@@H]([C@H](C)CCCC(C)C)CC[C@@]2(C)[C@H]1O : 7.09

Attention now turns to another entry.
Which pIC50 is reported for this molecule? `CC(C)CCC[C@@H](C)[C@H]1CC[C@@]2(C)[C@@H](O)[C@@H](N(C)Cc3ccccc3)CC[C@]12C`
7.96
